- TEST TARGET: human A1 receptor (Homo sapiens)
- Sequence (P30542 whole entry): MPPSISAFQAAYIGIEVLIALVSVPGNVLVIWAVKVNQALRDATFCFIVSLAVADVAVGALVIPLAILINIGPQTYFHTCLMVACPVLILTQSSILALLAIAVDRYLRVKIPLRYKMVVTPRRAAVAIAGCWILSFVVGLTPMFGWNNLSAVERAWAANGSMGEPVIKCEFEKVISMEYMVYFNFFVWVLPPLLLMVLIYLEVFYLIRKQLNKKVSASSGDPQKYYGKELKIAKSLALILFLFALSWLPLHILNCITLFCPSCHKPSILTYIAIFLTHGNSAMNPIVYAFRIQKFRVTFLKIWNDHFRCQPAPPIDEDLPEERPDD
- EXPERIMENT: cAMP HTRF functional assay, recombinant CHO cells expressing human A1 receptor, forskolin and agonist CPA
Entries and their measured IC50 follow.

Recorded result, COc1ccc(-c2ccccc2)c2ncc(NC(=O)C3(C(=O)N(C)C)CC3)nc12 , IC50: > 1 µM

Next:
Recorded result, COc1ccc(C2=CCOCC2)c2ncc(NC(=O)c3coc(CN)c3)nc12 , IC50: > 1 µM

Recorded result, COCCOc1cccc(-c2ccc(OC)c3nc(NC(=O)c4cnc(C)o4)cnc23)c1 , IC50: < 1 µM

Recorded result, COc1ccc(C2=CCOCC2)c2ncc(NC(=O)c3ncc(C4CCOC4)s3)nc12 (stereo not shown) , IC50: < 1 µM

Hello, the source for this data is patent US11192899B2, in case you need it.
